biological target: T1, soluble form of the Variant-specific Surface Glycoprotein (sVSG) of T. b. brucei AnTat1.1 (Trypanosoma brucei brucei AnTat1.1, UniProt P06015); experiment: SPR; BIAcore T100; 1000-1500 RU soluble AnTat1.1 VSG amine-coupled on a CM5 chip; Nanobody 500 to 7.8 nM at 30 µl/min in HBS (10 mM Hepes pH 7.5, 150 mM NaCl, 3.5 mM EDTA, 0.005% Tween-20); 1:1 binding model with local Rmax; details: both partners purified
T1 construct: Variant-specific Surface Glycoprotein (VSG) of Trypanosoma brucei brucei AnTat1.1, soluble form (sVSG); Glycoprotein; amine-coupled to a CM5 chip for SPR; also called AnTat1.1 sVSG; soluble AnTat1.1 VSG
ENDPOINT_LABEL: kon (M⁻¹ s⁻¹)
Record the value in M⁻¹ s⁻¹, omitting the unit from your answer.

Please report the recorded kon for Nb_An33hum1 (VHH) VHH: DVQLVESGGGSVQAGGSLRLSCAVSGSTYSPCTTGWVRQAPGKEREWVSSISSPGTIYYQDSVKGRFTISRDNAKNTVYLQMNSLQREDTGMYYCQIQCGVRSIREYWGQGTQVTVSS .
243000

Please report the recorded kon for Nb_An33mut2 (VHH, Conjugated with Alexa Fluor 488 for flow cytometry; source: E. coli WK6, purified (Ni-NTA, Superdex 75 gel filtration)) VHH: DVQLVESGGGSVQAGGSLRLSCAVSGSTYSPCTTGWYRQAPGKEREWVSSISSPGTIYYQDSVKGRFTISRDNAKNTVYLQMNSLQREDTGMYYCQIQCGFVNINEYWGQGTQVTVSS .
314000

Please report the recorded kon for Nb_An33hum2 (VHH) VHH: DVQLVESGGGSVQAGGSLRLSCAVSGSTYSPCTTGWVRQAPGKGLEWVSSISSPGTIYYQDSVKGRFTISRDNAKNTVYLQMNSLQREDTGMYYCQIQCGVRSIREYWGQGTQVTVSS .
291000

Please report the recorded kon for Nb_An33hum3 (VHH) VHH: DVQLVESGGGSVQAGGSLRLSCAVSGSTYSPCTTGWYRQAPGKGLEWVSSISSPGTIYYQDSVKGRFTISRDNAKNTVYLQMNSLQREDTGMYYCQIQCGVRSIREYWGQGTQVTVSS .
702000

Please report the recorded kon for Nb_An33mut3 (VHH, Conjugated with Alexa Fluor 488 for flow cytometry; source: E. coli WK6, purified (Ni-NTA, Superdex 75 gel filtration)) VHH: DVQLVESGGGSVQAGGSLRLSCAVSGSTYSPCTTGWYRQAPGKEREWVSSISSPGTIYYQDSVKGRFTISRDNAKNTVYLQMNSLQREDTGMYYCQIQCGNDCILEYWGQGTQVTVSS .
336000

Please report the recorded kon for Nb_An33mut1 (VHH, Conjugated with Alexa Fluor 488 for flow cytometry; source: E. coli WK6, purified (Ni-NTA, Superdex 75 gel filtration)) VHH: DVQLVESGGGSVQAGGSLRLSCAVSGRALSPCTTGWYRQAPGKEREWVSSISSPGTIYYQDSVKGRFTISRDNAKNTVYLQMNSLQREDTGMYYCQIQCGVRSIREYWGQGTQVTVSS .
467000

Please report the recorded kon for Nanobody 33 (Nb_An33), wildtype (VHH) VHH: DVQLVESGGGSVQAGGSLRLSCAVSGSTYSPCTTGWYRQAPGKEREWVSSISSPGTIYYQDSVKGRFTISRDNAKNTVYLQMNSLQREDTGMYYCQIQCGVRSIREYWGQGTQVTVSS .
741000
